# testedSystem: GST-Aq-NF-kB (Amphimedon queenslandica, UniProt A9Y5G7 2-389)
# Sequence: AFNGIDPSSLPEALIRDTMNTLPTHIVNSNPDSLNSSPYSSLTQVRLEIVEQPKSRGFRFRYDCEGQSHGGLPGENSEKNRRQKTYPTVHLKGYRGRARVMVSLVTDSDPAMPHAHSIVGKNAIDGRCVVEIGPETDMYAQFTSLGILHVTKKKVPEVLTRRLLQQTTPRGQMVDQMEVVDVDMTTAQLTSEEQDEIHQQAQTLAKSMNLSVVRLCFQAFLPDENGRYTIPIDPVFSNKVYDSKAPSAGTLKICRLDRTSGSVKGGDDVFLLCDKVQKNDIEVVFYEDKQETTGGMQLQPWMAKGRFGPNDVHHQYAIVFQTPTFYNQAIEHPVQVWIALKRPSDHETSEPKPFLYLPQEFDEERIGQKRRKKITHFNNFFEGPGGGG
# procedureDetails: protein-binding microarray (PBM); PBM: ~300 nM protein, 6 mM HEPES pH 7.8, 80 mM KCl, 0.5 mM EDTA, 0.5 mM EGTA, 6% glycerol, 35 ng/ul poly-dIdC, 1% milk, 1 h, room temperature; Ap Aiptasia and Nv Nematostella (sea anemones) / Co Capsaspora / Aq Amphimedon (sponge) / Dm Drosophila / Hu human; RHD is the Rel homology domain; high values mean tight binding
# measurementConditions: dsDNA, one strand shown
What binding signal was measured for each of the following?

As a guide, the following entries are already answered.
>>> reported("CCGATTAACATCAAGAGATTCCCTGATGTTAATCGGGTCTTGATTCGCTTGACGCTGCTG")
"4.06 z-score"
>>> reported("CCGATTAACATCACGGAAATTTCTGATGTTAATCGGGTCTTGATTCGCTTGACGCTGCTG")
"2.5 z-score"

Here is another sequence to look at.
Reported binding signal for CCGATTAACATCAGGGATCGCCCTGATGTTAATCGGGTCTTGATTCGCTTGACGCTGCTG was 4.24 z-score
